Kindly state melting point for each of the entries shown.
Give bare numbers, in °C.

# count of solved cases: 3
[
  {
    "structure": "C#Cc1ccc(C(=O)OC)c(O)c1",
    "readout number": 62
  },
  {
    "structure": "CCCCc1nc(SC2CCCCC2)c(C(=O)O)n1Cc1cc2c(cc1Cl)OCO2",
    "readout number": 257
  },
  {
    "structure": "C(=Nc1cccc2ccccc12)=Nc1cccc2ccccc12",
    "readout number": 91
  }
]

Sample Cc1ccccc1NS(=O)(=O)c1ccc(Br)cc1 — what was its melting point?
114

###

Record form. Attribute: melting point. Fill in for each entry.

Guide cases for melting point, answers given:
[
  {
    "compound": "COC(=O)c1ccc([N+](=O)[O-])cc1C#CC(C)(C)C",
    "melting point": "88 to 89 °C"
  },
  {
    "compound": "CC(C)Cn1nc(OCCCc2ccc(OC(C)C)cc2OCc2ccc(Cl)cc2Cl)cc1CCC(=O)O",
    "melting point": "133 to 134 °C"
  },
  {
    "compound": "CCOC(=O)Cn1c(CC(=O)O)cc2c(Cl)c(Cl)ccc21",
    "melting point": "205 to 207 °C"
  },
  {
    "compound": "CCCCCCC(=N)NC(=S)Nc1ccc(OC)cc1",
    "melting point": "70 to 72 °C"
  },
  {
    "compound": "COc1cc2ncnc(N3CCC(C(C)CN4C(C)=CC(C)=NS4(=O)=O)CC3)c2cc1OC (stereo not given)",
    "melting point": "169 to 172 °C"
  },
  {
    "compound": "CC(=O)c1ccc(C2(O)CC(C)(C)CC(C)(C)C2)cc1",
    "melting point": "135 °C"
  },
  {
    "compound": "CCNC(=O)C1CN(C(c2ccccc2)c2ccccc2)C1",
    "melting point": "91 to 93 °C"
  },
  {
    "compound": "COc1ccc(N2CCN(c3ccc(N=C=S)cc3)CC2)cc1",
    "melting point": "181 °C"
  },
  {
    "compound": "CC(C)(C)c1cc(CCC(=O)NN2C(=O)C=CC2=O)cc(C(C)(C)C)c1O",
    "melting point": "90 to 94 °C"
  }
]

Now look at this one.
Recorded melting point of CCOC(=O)c1cn(-c2nsnc2C)c2nc(Cl)c(F)cc2c1=O , please.
192 °C

###

Kindly supply the reported melting point values for the records listed here.

Completed entries (count: 3):
[
  {
    "compound": "Cc1ccccc1S(=O)(=O)OC1C2C(C(=O)N1Cc1ccc3c(c1)OCO3)C(c1ccc(Br)cc1)N(C)C2(C)C (stereo not given)",
    "melting point": "172 to 173 °C"
  },
  {
    "compound": "Cn1cc(/C=C/C#N)c2ccccc21",
    "melting point": "91 to 94 °C"
  },
  {
    "compound": "O=C(O)c1ccc(CCCC2SCC(=O)N2CCC2(O)C3CCCC2CCC3)cc1 (stereo not given)",
    "melting point": "176 to 178 °C"
  }
]

Each of the following entries comes with a recorded value; kindly state melting point for each.
1. CCCCCCCCCCC[C@]1(C)OO[C@@H]2C[C@H]1CC(=O)[C@@H]2C
2. N#Cc1cnc2c(oc3ccccc32)c1Cl

["42 °C", "229 to 231 °C"]

###

Consider the following molecules; for each one, report its melting point.

[
  {
    "molecule": "O=C(CNC(=O)c1cc([N+](=O)[O-])ccc1Cl)OCc1ccccc1",
    "melting point": "116 to 118 °C"
  },
  {
    "molecule": "O=[N+]([O-])c1ccc2c(c1)CCC(CO)O2 (stereo unspecified)",
    "melting point": "96.5 °C"
  },
  {
    "molecule": "CCN(CC)CCN(c1cc(OC)c(C)cc1[N+](=O)[O-])S(=O)(=O)c1ccc(C)cc1",
    "melting point": "114 °C"
  },
  {
    "molecule": "CN(C)CCOC(=O)c1cc2cccc(O)c2[nH]1",
    "melting point": "149 to 152 °C"
  },
  {
    "molecule": "CC(Cl)C(=O)Oc1coccc1=S (stereo unspecified)",
    "melting point": "118 to 119 °C"
  },
  {
    "molecule": "OC(CCl)COc1cccc(-c2nc(C(F)(F)F)c[nH]2)c1 (stereo unspecified)",
    "melting point": "181 to 183 °C"
  }
]

Go through the list and state melting point for each entry.
1. Clc1ccc(-c2nc3cccnc3n2Cc2ncc[nH]2)cc1
2. c1ccc(-n2c3ccccc3c3ccccc32)cc1
3. COc1ccc(C(=O)C2CCCCC2)c(Cl)c1Cl
4. CCCCNC(=O)S(=O)(=O)Nc1sc(CC(C)C)cc1-c1ccc(Cn2c(-c3ccccc3)nc(OC)c2C=O)cc1

["184 to 185 °C", "96 to 97 °C", "97 to 98 °C", "131 to 133 °C"]

###

For each of the molecules below, state its melting point.

These recorded examples may help you get a feel for the data.
[
  {
    "molecule": "O/C(=C\\c1nc2ccccc2c2nccn12)c1cccs1",
    "melting point": "128 °C"
  },
  {
    "molecule": "O=C(O)Cc1c(-c2ccccc2)c2cc3c(cc2oc1=O)C(=O)OC3",
    "melting point": "226 to 227 °C"
  },
  {
    "molecule": "COC(=O)C(Oc1nc(C)cc(OC)n1)C(OCC(C)(C)C(=O)OC)(c1ccccc1)c1ccccc1 (stereo unspecified)",
    "melting point": "143 °C"
  }
]

List reported melting point for each of these molecules:
1. ICc1ccc2c(c1)OCO2
2. Cc1cc(OCC(=O)OC(C)C)ccc1NC(=O)NC(=O)c1ccc(C#N)cc1
3. CS(=O)c1c(N)nc(N)nc1Cl (stereo unspecified)

1: 51 °C; 2: 233 to 234 °C; 3: 126 to 128 °C

// for each molecule in input: emit melting point
1. C=CCN1C(=O)NC(C)(C)C1=O
2. Cc1ccc(N2CCCN(c3ccnc4sc(C(N)=O)c(N)c34)CC2)nc1

1. 66.2 to 68.7 °C
2. 205 to 208 °C

# batch size: 3; output melting point per entry
1. CCOC(=O)N1CCN(Cc2nc3cccnc3n2CCO)CC1
2. CCOc1ccc(F)c2c1c(CCN(C)C)cn2CC
3. COC(=O)[C@H]1C[C@H](C(=O)O)Nc2cc(Br)cc(Br)c21 (relative stereo)

117 °C
59 to 60 °C
171 to 173 °C

###

Please provide measured melting point for the entries that follow.

Example cases with answers are listed next.
[
  {
    "molecule": "O=c1[nH]c2cc(F)c([N+](=O)[O-])cc2o1",
    "melting point": "207 to 209 °C"
  },
  {
    "molecule": "OCc1cn(-c2ccc3c(c2)OC(F)(F)O3)cn1",
    "melting point": "163 to 164 °C"
  }
]

Quick one: give me melting point for each item below, same order please.
1. CC(=O)OC1(C)CCC2C(C)(C)CCCC2(C)C1CCC(C)(O)C1CO1 (centres undefined)
2. CCNC(=O)n1nc(Oc2ncc(C(F)(F)F)cc2Cl)c(CC)c1C
3. CCCCc1nc(C)n2nc(S)nc2c1Cc1ccc(-c2ccccc2)c(-c2nnn[nH]2)c1
4. CC(=O)N1CCC(C(=O)N(CCCN2CC3CN(C(=O)c4cccnc4N4CCC4)CC3C2)c2ccc(C)c(Cl)c2)CC1 (centres undefined)
5. CNS(=O)(=O)c1ccccc1Nc1nc(Nc2ccc3c(c2)CNC(=O)CCN3)ncc1Cl
6. Cc1cc(C(=O)N2Cc3cccn3Cc3ccccc32)ccc1C1=CCCCC1C (centres undefined)

130 to 131 °C
101 to 102 °C
135 to 137 °C
72.9 to 74 °C
197 to 198 °C
132 to 133 °C

Hi, could you look up melting point for each item in my list?
1. CCOC(=O)C(CC)Sc1nc2c(c(=O)n(CCOC)c(=O)n2C)n1Cc1cccc(Br)c1 (centres undefined)
2. CCCCC(Oc1ccccc1)C(=O)OC1CC(O)C=C2C=CC(C)C(CCC3CC(O)CC(=O)O3)C21 (mixture of isomers)

["58 °C", "139 to 141 °C"]

Give me melting point for each of these molecules, listed below.
1. O=S(=O)(CI)c1ncc(Cl)cn1
2. O=C(O)c1ccc(C#CC=Cc2ccccc2-c2ccc(Cl)cc2)cc1
3. CCOC(=O)c1ncn(-c2nncs2)c1S(=O)(=O)NC(=O)Nc1nc(OC)cc(OC)n1
4. CC(C)(Cl)C(CCn1ccnc1[N+](=O)[O-])N=O (centres undefined)
5. CC(C)(C)OC(=O)N[C@@H](CCC(=O)Oc1ccc(-c2nn(C3CCCC3)c3c(F)cccc23)cc1)C(=O)OC(C)(C)C
6. Cc1ccc(C2CC(=O)c3ccccc3N2)cc1 (centres undefined)
7. CC(Oc1ccc(Cl)cc1)(C(=O)O)C(F)(F)F (centres undefined)

1. 152 °C
2. 135 °C
3. 169 to 171 °C
4. 96 to 97 °C
5. 92 to 93 °C
6. 144 to 146 °C
7. 141 to 142 °C

// batch mode: one melting point value per listed entry
1. O=C(OCC1c2ccccc2-c2ccccc21)N1Cc2cccn2Cc2ccccc21
2. CSCCNC(=O)c1cccc(-c2cccc3c(C)c(Cc4cccc(C(F)(F)F)c4)oc23)c1
3. CC(C)[C@H](NC(=O)NCc1cccnc1)C(=O)NC(Cc1ccccc1)C(O)C(Cc1ccccc1)NC(=O)[C@@H](NC(=O)OCc1ccccc1)C(C)C (some centres undefined)

["141 to 142 °C", "138 to 139 °C", "205 to 206 °C"]
